Data credit: patent US8541442B2

tested on: human U87 glioma tumor; assay: In vivo anti tumour effects, U87 glioma xenograft; settings: U87 xenograft in NMRI Nude mice, 20 mg/kg p.o. QD for 5 days, day 10 after start dosing
Measured % T/C day 10 accompanies every entry in the list below.
Kindly provide the numeric value in % only, without the unit symbol.

Before answering, review these 5 worked examples.
# compound, numericReadout
data = [
    ("Cc1cc(Nc2ccnc3c2CCC3O)ccc1NCCc1c[nH]c2c(CCO)cccc12 (single isomer, unassigned)", 95),
    ("Cc1cc(Nc2ccnc3c2CCC3(C)O)ccc1NCCc1c[nH]c2c(C(C)O)cccc12 (stereo not drawn)", 71),
    ("COc1cc(Nc2ccnc3c2CCC3O)ccc1NCCc1c[nH]c2c(C(C)(C)O)cccc12 (stereo not drawn)", 79),
    ("Cc1cc(Nc2ccnc(CO)c2)ccc1NCCc1c[nH]c2c(C(C)(C)O)cccc12", 40),
    ("Cc1cc(Nc2ccncc2)ccc1NCCc1c[nH]c2c(C(O)C(C)C)cccc12 (stereo not drawn)", 55),
]

Could you now consider this next compound?
Query :: May I ask what % T/C day 10 has been recorded for COC1CCc2c(Nc3ccc(NCCc4c[nH]c5c(C(C)O)cccc45)c(C)c3)ccnc21 (stereo not drawn) ?
Result :: 64
